Sourced from ChEMBL document CHEMBL4513216

# System: Plasmodium berghei
# Protocol: Screen against P. berghei liver stage (PbLuc), transformed with Luciferase, at 10uM
# Type: functional, HepG2
# Test Conditions: tested at 10 uM
About 8,600 (12%) of roughly 69,000 compounds showed an effect of 50% or more. For the sample, strong results were picked, then their nearest neighbours and some compounds at random.
Parameter Measured: INHIBITION (%)
Give your result in % as a bare value.

Below, 3 molecules whose answers are already recorded.
>>> recorded_value("COc1ccc(NC(C)C(=O)N2CCCC2)cn1 (configuration not stated)")
78.2
>>> recorded_value("COC(=O)C(C)(C)NC(=O)C1CC(=O)N(C2CCCC2)C1 (configuration not stated)")
20.1
>>> recorded_value("COC(=O)C(C)(C)NC(=O)C1CC(=O)N(C)C1 (configuration not stated)")
35.1

Q) Please look at COC(=O)C(C)(C)NC(=O)C1CC(=O)N(C2CC2)C1 (configuration not stated) and tell me its recorded INHIBITION on Plasmodium berghei.
A) 84.1

Q) Write down the reported INHIBITION (system: Plasmodium berghei) of CC(C)N(C)C(=O)C1=NOC2(CCN(C(=O)c3ccncc3)C2)C1 (configuration not stated)
A) 3.47

Q) Consider the molecule CC(NC(=O)N1CCC(CO)CC1)c1csc2ccccc12 (configuration not stated) tested on Plasmodium berghei; state its INHIBITION.
A) 55.5

Q) Provide Plasmodium berghei INHIBITION reading for Clc1ccc(C2(NCc3noc(C4CC4)n3)CCC2)cc1 .
A) 8.18

Q) Answer briefly: INHIBITION recorded on Plasmodium berghei for COc1ccc(NC(C)C(=O)N2CCN(c3ccccc3)CC2)cn1 (configuration not stated)
A) 21.6

Q) GET INHIBITION where system = Plasmodium berghei and item = CCCc1nc(CNc2ccc(F)c(F)c2)no1
A) -9.51

Q) Using Plasmodium berghei as the test system, report measured INHIBITION of CCOc1ncccc1NC(=O)c1cccs1 .
A) -10.9

Q) // fetch INHIBITION; item: COc1ccc2c(c1)CCCN2Cc1nc(C)c(C)o1 ; system: Plasmodium berghei
A) 19.8

Q) GET INHIBITION where system = Plasmodium berghei and item = Cc1cccc(C)c1NCc1noc(C2CC2)n1
A) 36.3
